In this section, each of the compounds is paired with its reported pEC50.
Test system: THP-1 Lucia ISG cells
Assay: ISG-LUC activation assay (ISRE-luciferase assay)
Assay type: cell-based
Settings: Homo sapiens, THP1-Lucia ISG; THP-1 Lucia ISG reporter cells, 24 hours; score based upon potency and efficacy relative to reference compound; read-out: ISG-LUC activation assay score
pEC50: −log10 of the molar value.

>>> df
                         chemical_structure  measured_value
0  C#Cc1cc(NC(=O)c2ccn3nc(-c4cn[nH]c4)nc3n2)c(C(=O)O)cc1F          < 4.70
1  COc1cc(NC(=O)c2ccc3cnnn3n2)c(C(=O)O)cc1F          > 5.52
2  COC(=O)c1cc(Cl)c(Cl)cc1NC(=O)c1nn2nnnc2cc1N          > 6.05

For the compound "C#Cc1cc2nc(-c3cc(N)c4nnnn4n3)oc(=O)c2cc1F" , the measured pEC50 on THP-1 Lucia ISG cells was > 6.05

The reported pEC50 value, THP-1 Lucia ISG cells, for "C#Cc1cc(NC(=O)c2ccc3c(C#N)nnn3n2)c(C(=O)O)cc1F" reads < 6.00

Item: "COC(=O)c1cc(C#N)c(Cl)cc1NC(=O)c1cc2[nH]ncc2cn1" | System: THP-1 Lucia ISG cells | pEC50: < 6.00

"C#Cc1cc(NC(=O)c2ccn3c(-c4cn[nH]c4)cnc3n2)c(C(=O)O)cc1F" on THP-1 Lucia ISG cells gives pEC50 = < 4.70

"C=C(F)c1cc(NC(=O)c2cc(N)c3nnnn3n2)c(C(=O)O)cc1F" tested on THP-1 Lucia ISG cells gave pEC50: < 6.00

The value of pEC50 recorded for "COC(=O)c1cc(F)c(OC)cc1NC(=O)c1cc(NC(=O)OC(C)(C)C)c2nnnn2n1" when tested on THP-1 Lucia ISG cells reads < 6.00

Here "C=C(F)c1ccc(C(=O)O)c(NC(=O)c2cc(N)c3cnnn3n2)c1" was tested on THP-1 Lucia ISG cells, and its pEC50 came to < 6.00

###

# pEC50 per entry
Test system: THP-1 Lucia ISG cells
Test: ISG-LUC activation assay (ISRE-luciferase assay)
Type: cell-based
Conditions: Homo sapiens, THP1-Lucia ISG; THP-1 Lucia ISG reporter cells, 24 hours; score based upon potency and efficacy relative to reference compound; read-out: ISG-LUC activation assay score
pEC50: −log10 of the molar value.

>>> df
                         chemical_structure            test_target  property  measured_value
0  Cc1cc(NC(=O)c2cc(N)c3nnnn3n2)c(C(=O)O)cc1F  THP-1 Lucia ISG cells     pEC50          < 6.00
1  C#Cc1ccc(NC(=O)c2cc(N)c3nnnn3n2)c(C(=O)O)c1  THP-1 Lucia ISG cells     pEC50          < 4.70

Recorded pEC50 (compound "COc1cc(NC(=O)c2ccc3nnnn3n2)c(C(=O)O)cc1F" ): > 5.52

The compound listed as "C=C(F)c1ccc(C(=O)OC)c(NC(=O)c2cc(N)n3ncnc3n2)c1" shows pEC50 equal to > 6.05

Lookup result for "COC(=O)c1cc(F)c(F)cc1NC(=O)c1cccn2cnnc12" ; measured pEC50: < 6.00

The recorded pEC50 for "COC(=O)c1cc(F)c(OC)cc1NC(=O)c1ccc2cnnn2n1" is > 6.05

Values were extracted from patent US20220332720A1.
